Each entry below lists one item and its recorded total protein half-life in vivo value.
# assayInfo: total protein half-life in vivo (active degradation + dilution); higher = more stable protein
# experimentalConditions: wild type E. coli NCM3722; growth: P-lim chemostat; doubling time 12 h
measurementLabel: total protein half-life in vivo

[[record]]
sequencecontent = "MPPRRYNPDTRRDELLERINLDIPGAVAQALREDLGGTVDANNDITAKLLPENSRSHATVITRENGVFCGKRWVEEVFIQLAGDDVTIIWHVDDGDVINANQSLFELEGPSRVLLTGERTALNFVQTLSGVASKVRHYVELLEGTNTQLLDTRKTLPGLRSALKYAVLCGGGANHRLGLSDAFLIKENHIIASGSVRQAVEKASWLHPDAPVEVEVENLEELDEALKAGADIIMLDNFETEQMREAVKRTNGKALLEVSGNVTDKTLREFAETGVDFISVGALTKHVQALDLSMRFR"
testresult = "9.73 h"

[[record]]
sequencecontent = "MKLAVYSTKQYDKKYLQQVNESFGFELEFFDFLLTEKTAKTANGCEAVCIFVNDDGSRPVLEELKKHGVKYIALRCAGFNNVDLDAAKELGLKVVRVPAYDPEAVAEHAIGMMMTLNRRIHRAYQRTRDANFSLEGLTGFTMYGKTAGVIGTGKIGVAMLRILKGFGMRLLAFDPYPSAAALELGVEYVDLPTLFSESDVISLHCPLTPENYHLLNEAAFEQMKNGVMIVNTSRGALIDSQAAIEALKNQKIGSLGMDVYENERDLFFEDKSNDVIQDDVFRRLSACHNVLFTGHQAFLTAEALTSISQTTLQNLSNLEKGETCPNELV"
testresult = "12.3 h"

[[record]]
sequencecontent = "MGSINLRIDDELKARSYAALEKMGVTPSEALRLMLEYIADNERLPFKQTLLSDEDAELVEIVKERLRNPKPVRVTLDEL [P0C079]"
testresult = "2.75 h"


---

# assayInfo: total protein half-life in vivo (active degradation + dilution); higher = more stable protein
# experimentalConditions: E. coli NCM3722 delta-clpP; growth: N-lim chemostat; doubling time 6 h
Each item that follows carries a reported total protein half-life in vivo.
measurementLabel: total protein half-life in vivo (h)

[[record]]
sequencecontent = "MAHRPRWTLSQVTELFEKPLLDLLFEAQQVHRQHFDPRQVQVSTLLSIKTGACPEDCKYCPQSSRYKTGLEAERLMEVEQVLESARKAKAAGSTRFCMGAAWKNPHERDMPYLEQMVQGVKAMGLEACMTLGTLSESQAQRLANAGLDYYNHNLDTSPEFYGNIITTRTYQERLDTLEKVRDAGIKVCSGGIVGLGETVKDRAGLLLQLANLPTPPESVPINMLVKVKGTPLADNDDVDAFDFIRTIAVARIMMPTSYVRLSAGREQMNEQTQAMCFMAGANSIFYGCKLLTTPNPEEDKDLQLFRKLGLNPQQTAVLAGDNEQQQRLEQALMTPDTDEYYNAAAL"
measurementlabel = "total protein half-life in vivo"
u = "h"
qualifieroperator = "="
testresult = 2.24

[[record]]
sequencecontent = "MKIELTVNGLKIQAQYQNEEIENVHKPLLHMLAALQTVNPQRRTVVFLCAPPGTGKSTLTTFWEYLAQQDPELPAIQTLPMDGFHHYNSWLDAHQLRPFKGAPETFDVAKLTENLRQVVEGDCTWPQYDRQKHDPVEDALHVTAPLVIVEGNWLLLDDEKWLELASFCDFSIFIHAPAQILRERLISRKIAGGLTRQVAEAFYARTDGPNVERVLMNSRQANLIVEMTEEGRYHFTS"
measurementlabel = "total protein half-life in vivo"
u = "h"
qualifieroperator = "="
testresult = 1.31

[[record]]
sequencecontent = "MSDMHSLLIAAILGVVEGLTEFLPVSSTGHMIIVGHLLGFEGDTAKTFEVVIQLGSILAVVVMFWRRLFGLIGIHFGRPLQHEGESKGRLTLIHILLGMIPAVVLGLLFHDTIKSLFNPINVMYALVVGGLLLIAAECLKPKEPRAPGLDDMTYRQAFMIGCFQCLALWPGFSRSGATISGGMLMGVSRYAASEFSFLLAVPMMMGATALDLYKSWGFLTSGDIPMFAVGFITAFVVALIAIKTFLQLIKRISFIPFAIYRFIVAAAVYVVFF"
measurementlabel = "total protein half-life in vivo"
u = "h"
qualifieroperator = ">"
testresult = 8

